B1: HDV Ribozyme (parent)
chain: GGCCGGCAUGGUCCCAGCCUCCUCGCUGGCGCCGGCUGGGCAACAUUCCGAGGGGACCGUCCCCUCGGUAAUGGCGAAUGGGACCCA

Variants of: B1
Experiment: self-cleavage, relative activity (ratio to wild type); higher = more cleavage; co-transcriptional
Catalogue of self-cleavage readings, one per entry.

// worked examples, self-cleavage included
GGCCGGCAUGGUCCCAGCCUCCUCGCUGGCGCCGGCUGGGCAACAUCCCGAGGGGACCGUCCCUUCGGUAAUGGCGAAUGGGACCCA 0.692
GGCCGGCAUGGUCCCAGCCUCCUCGCGGGCGCCGGCUGGGCAACAUUCCGAGGGGAGCGUCCCCUCGGUAAUGGCGAAUGGGACCCA 0.895
GGCCGGCAUGGUCUCAGCCUCCUCGCUGGCGCCGGCUGGGCAACAUUCCGAGGGGACCGUCCCAUCGGUAAUGGCGAAUGGGACCCA 0.939

In: Give its self-cleavage value. Item: GGCCGGCAUGGUCCCCGCCUCCUCGCUGGCGCCGGCUGGGCAACAUUCCGAGGGGACCGUCCCCUCGGUAAUGGCGAAUGGGACACA
Out: 0.875

In: Give its self-cleavage value. Item: GGCCGGCAUGGUCCCAGCCUCCUCGCUGCCGCCGGCUGGGCAACAUUCCGAGGGGACCGUCCCCUCGGUAAUGGCGAAAGGGACCCA
Out: 0.147

In: Give its self-cleavage value. Item: AGCCGGCAUGGUCCCAGCCUCCUCGCUGGCGCCGGCUGGGCAACAUUCCGAGGGGCCCGUCCCCUCGGUAAUGGCGAAUGGGACCCA
Out: 0.107
